B1: NELF-E aptamer (parent)
chain: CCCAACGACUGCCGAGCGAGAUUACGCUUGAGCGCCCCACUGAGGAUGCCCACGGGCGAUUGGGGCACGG

Variants of: B1
METHOD_SUMMARY: HiTS-RAP
STUDY_CONDITIONS: with NELF-E (Drosophila)
pKd: −log10 of the molar value.
RECORDED_METRIC: pKd

C6G U28A; 8.29
A4G G14U; 8.20
A5G C12U; 8.19
G14U C38U; 8.01
U23C U29G; 8.36
C13U A15U; 8.32
G11A A67U; 8.16
C33A; 8.33
A8G G64A; 8.13
G7A U22G; 8.15
A24G A67U; 8.10
G16U A24G; 8.15
C12G G65U; 8.08
A15G C17G; 8.23
G11A C13G; 8.21
G30C; 8.21
A8G A67U; 8.18
U41G U47G; 8.12
G7U U47G; 8.10
C12U C13G; 8.27
A4G G64U; 8.12
C13U A52U; 8.00
